Numbers sourced from ChEMBL document CHEMBL1154177.

# test name: Fraction unbound in rat
# Assay type: ADME, organism-based
# run parameters: in vivo
parameter: fraction unbound

CCN(CC)C(=O)[C@@H]1C=C2c3cccc4[nH]cc(c34)C[C@H]2N(C(=O)Nc2ccccc2)C1 : 0.02

###

# measurement target: D(2) dopamine receptor (Homo sapiens, UniProt P14416)
# Sequence (P14416 whole entry): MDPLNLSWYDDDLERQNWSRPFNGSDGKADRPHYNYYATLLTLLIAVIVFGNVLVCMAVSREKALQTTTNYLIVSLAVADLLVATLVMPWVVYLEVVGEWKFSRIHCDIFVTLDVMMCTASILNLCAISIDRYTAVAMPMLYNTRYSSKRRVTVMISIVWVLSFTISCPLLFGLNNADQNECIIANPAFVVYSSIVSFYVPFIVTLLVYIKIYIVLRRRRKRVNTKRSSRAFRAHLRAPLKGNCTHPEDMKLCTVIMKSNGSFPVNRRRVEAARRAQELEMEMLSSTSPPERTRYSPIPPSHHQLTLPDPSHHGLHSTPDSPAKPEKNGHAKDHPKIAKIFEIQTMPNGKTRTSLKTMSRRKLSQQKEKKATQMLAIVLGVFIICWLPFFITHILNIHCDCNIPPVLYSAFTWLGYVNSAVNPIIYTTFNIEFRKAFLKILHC
# test name: Inhibition of dopamine D2 receptor
pIC50: −log10 of the molar value.
parameter: pIC50

CCN(CC)C(=O)[C@@H]1C=C2c3cccc4[nH]cc(c34)C[C@H]2N(C(=O)Nc2ccccc2)C1 : 5.80

###

# measurement target: 5-hydroxytryptamine receptor 6 (Homo sapiens)
# Sequence (P50406 whole entry): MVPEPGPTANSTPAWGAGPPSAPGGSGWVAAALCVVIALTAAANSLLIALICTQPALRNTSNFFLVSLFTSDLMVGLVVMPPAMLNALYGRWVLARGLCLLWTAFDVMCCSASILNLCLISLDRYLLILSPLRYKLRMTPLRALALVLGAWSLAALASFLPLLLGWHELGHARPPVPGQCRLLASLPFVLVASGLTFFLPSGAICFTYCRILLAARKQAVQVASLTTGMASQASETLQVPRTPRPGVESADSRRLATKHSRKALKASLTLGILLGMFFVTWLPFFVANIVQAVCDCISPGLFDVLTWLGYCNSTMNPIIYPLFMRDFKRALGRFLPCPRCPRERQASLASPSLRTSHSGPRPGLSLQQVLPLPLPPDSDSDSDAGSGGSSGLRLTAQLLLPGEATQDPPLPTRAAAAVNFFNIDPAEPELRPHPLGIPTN
# test name: Inhibition of 5HT6 receptor
pIC50: −log10 of the molar value.
This listing pairs molecules with measured pIC50.
parameter: pIC50

CCN(CC)C(=O)[C@@H]1C=C2c3cccc4[nH]cc(c34)C[C@H]2NC1 : 7.80
CCN(CC)C(=O)[C@@H]1C=C2c3cccc4[nH]cc(c34)C[C@H]2N(C(=O)Nc2ccccc2)C1 : 5.02

###

# measurement target: Alpha-2A adrenergic receptor (Homo sapiens, UniProt P08913)
# Sequence (P08913 whole entry): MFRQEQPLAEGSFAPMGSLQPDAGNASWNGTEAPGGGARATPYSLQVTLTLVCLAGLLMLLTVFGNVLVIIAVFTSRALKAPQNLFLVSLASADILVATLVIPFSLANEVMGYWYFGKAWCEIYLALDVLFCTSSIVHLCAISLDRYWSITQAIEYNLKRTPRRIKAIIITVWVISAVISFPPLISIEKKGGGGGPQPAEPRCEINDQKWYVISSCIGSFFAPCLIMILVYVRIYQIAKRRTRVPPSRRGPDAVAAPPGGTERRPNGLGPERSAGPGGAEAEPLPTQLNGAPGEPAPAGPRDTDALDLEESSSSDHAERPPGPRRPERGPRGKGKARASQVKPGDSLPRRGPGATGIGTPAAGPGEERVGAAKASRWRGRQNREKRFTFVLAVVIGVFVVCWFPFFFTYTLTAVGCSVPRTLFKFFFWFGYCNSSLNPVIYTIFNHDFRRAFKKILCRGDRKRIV
parameter: IC50 (nM)

CCN(CC)C(=O)[C@@H]1C=C2c3cccc4[nH]cc(c34)C[C@H]2N(C(=O)Nc2ccccc2)C1 : 1930

###

# measurement target: D(1A) dopamine receptor (Homo sapiens, UniProt P21728)
# Sequence (P21728 whole entry): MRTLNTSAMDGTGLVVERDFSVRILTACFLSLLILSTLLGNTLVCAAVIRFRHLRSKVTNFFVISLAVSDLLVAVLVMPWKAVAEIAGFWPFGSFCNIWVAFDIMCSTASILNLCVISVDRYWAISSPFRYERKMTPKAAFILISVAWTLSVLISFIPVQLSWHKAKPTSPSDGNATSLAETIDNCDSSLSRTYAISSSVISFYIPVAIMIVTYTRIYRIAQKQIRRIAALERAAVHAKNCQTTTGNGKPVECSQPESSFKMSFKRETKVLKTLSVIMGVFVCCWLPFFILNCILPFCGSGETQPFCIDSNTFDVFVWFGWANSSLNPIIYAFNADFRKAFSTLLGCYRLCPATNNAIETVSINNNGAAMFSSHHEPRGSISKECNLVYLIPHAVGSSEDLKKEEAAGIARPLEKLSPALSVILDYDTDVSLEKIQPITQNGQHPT
# test name: Inhibition of dopamine D1 receptor
pIC50: −log10 of the molar value.
parameter: pIC50

CCN(CC)C(=O)[C@@H]1C=C2c3cccc4[nH]cc(c34)C[C@H]2N(C(=O)Nc2ccccc2)C1 : 5.31

###

# measurement target: Cytochrome P450 2D6 (Homo sapiens, UniProt P10635)
# Sequence (P10635 whole entry): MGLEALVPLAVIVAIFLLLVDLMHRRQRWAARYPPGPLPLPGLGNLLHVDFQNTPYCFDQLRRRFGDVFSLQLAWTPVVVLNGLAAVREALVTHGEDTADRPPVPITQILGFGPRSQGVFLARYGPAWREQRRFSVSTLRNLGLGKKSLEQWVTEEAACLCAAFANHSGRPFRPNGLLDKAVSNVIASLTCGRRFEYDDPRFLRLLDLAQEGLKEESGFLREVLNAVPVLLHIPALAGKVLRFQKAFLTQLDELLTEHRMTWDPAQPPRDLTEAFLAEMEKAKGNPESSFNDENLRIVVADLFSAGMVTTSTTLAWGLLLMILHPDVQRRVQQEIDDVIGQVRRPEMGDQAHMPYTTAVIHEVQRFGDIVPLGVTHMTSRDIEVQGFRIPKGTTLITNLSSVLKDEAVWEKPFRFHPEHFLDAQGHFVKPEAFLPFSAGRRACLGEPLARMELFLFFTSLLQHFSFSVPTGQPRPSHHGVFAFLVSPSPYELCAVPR
pIC50: −log10 of the molar value.
parameter: pIC50

CCN(CC)C(=O)[C@@H]1C=C2c3cccc4[nH]cc(c34)C[C@H]2N(C(=O)Nc2ccccc2)C1 : < 5.00

###

# test name: Lipophilicity, log P of the compound
# Type: physicochemical
# run parameters: octanol/water
parameter: logP

CCN(CC)C(=O)[C@@H]1C=C2c3cccc4[nH]cc(c34)C[C@H]2N(C(=O)Nc2ccccc2)C1 : 4.2

###

# measurement target: 5-hydroxytryptamine receptor 2C (Homo sapiens, UniProt P28335)
# Sequence (P28335 whole entry): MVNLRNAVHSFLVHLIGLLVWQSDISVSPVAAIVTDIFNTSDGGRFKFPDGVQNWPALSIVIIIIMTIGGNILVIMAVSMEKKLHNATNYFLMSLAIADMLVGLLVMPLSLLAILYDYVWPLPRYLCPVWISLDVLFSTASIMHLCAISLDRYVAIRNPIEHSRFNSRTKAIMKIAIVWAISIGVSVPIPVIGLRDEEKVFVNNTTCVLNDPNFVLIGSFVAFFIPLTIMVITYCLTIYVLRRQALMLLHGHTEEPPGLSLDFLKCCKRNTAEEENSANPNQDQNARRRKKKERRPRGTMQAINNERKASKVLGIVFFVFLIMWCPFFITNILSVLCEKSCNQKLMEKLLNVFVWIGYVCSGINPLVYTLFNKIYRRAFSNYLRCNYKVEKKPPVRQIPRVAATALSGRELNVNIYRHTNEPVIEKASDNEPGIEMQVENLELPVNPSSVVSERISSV
# test name: Inhibition of 5HT2C receptor
pIC50: −log10 of the molar value.
parameter: pIC50

CCN(CC)C(=O)[C@@H]1C=C2c3cccc4[nH]cc(c34)C[C@H]2NC1 : 5.89

###

# measurement target: C-X-C chemokine receptor type 3 (Homo sapiens, UniProt P49682)
# test name: Displacement of [125I]I-TAC from human CXCR3 expressed in CHO cells by scintillation proximity assay
# Format: cell-based
This listing pairs molecules with measured IC50.
parameter: IC50 (µM)

CCN(CC)C(=O)[C@@H]1C=C2c3cccc4c3c(cn4Cc3ccccc3)C[C@H]2N(C(=O)Nc2ccccc2)C1 : 0.59
CCN(CC)C(=O)[C@@H]1C=C2c3cccc4c3c(cn4C)C[C@H]2N(C(=O)Nc2ccccc2)C1 : 0.22

###

Target or system 5-hydroxytryptamine receptor 7 (Homo sapiens): recorded IC50 listed per item.
parameter: IC50

CCN(CC)C(=O)[C@@H]1C=C2c3cccc4[nH]cc(c34)C[C@H]2N(C(=O)Nc2ccccc2)C1 : > 10000 nM
CCN(CC)C(=O)[C@@H]1C=C2c3cccc4[nH]cc(c34)C[C@H]2NC1 : 143 nM

###

# test name: Solubility in pH 6.8 buffer
# Type: physicochemical
parameter: solubility (µg/mL)

CCN(CC)C(=O)[C@@H]1C=C2c3cccc4[nH]cc(c34)C[C@H]2N(C(=O)Nc2ccccc2)C1 : 5

###

# measurement target: C-X-C chemokine receptor type 3 (Homo sapiens)
# test name: Antagonist activity at human CXCR3 expressed in L1.2 cells assessed as inhibition of I-TAC-induced Ca2+ mobilization by FLIPR assay
# Assay type: functional, cell-based
pIC50: −log10 of the molar value.
Decision: pIC50 >= 6 yields y, all other cases yield n.

CCN(CC)C[C@@H]1C=C2c3cccc4[nH]cc(c34)C[C@H]2N(C(=O)Nc2ccccc2)C1 : n
CCN(CC)C(=O)[C@@H]1C=C2c3cccc4[nH]cc(c34)C[C@H]2N(C(=O)Nc2ccc(C)cc2)C1 : y
CCN(CC)C(=O)[C@@H]1C=C2c3cccc4[nH]cc(c34)C[C@H]2N(C(=O)Nc2ccncc2)C1 : n
CCN(CC)C(=O)[C@@H]1C=C2c3cccc4[nH]cc(c34)C[C@H]2N(C(=O)Nc2cccc(C)c2)C1 : y
CCN(CC)C(=O)[C@@H]1C=C2c3cccc4[nH]cc(c34)C[C@H]2N(C(=O)Nc2ccccc2C)C1 : y
CCN(CC)C(=O)[C@@H]1C=C2c3cccc4c3c(cn4Cc3ccccc3)C[C@H]2N(C(=O)Nc2ccccc2)C1 : y
CCN(CC)C(=O)[C@@H]1C=C2c3cccc4[nH]cc(c34)C[C@H]2N(C(=O)Nc2cc(OC)c(OC)c(OC)c2)C1 : y
CCN(CC)C(=O)[C@@H]1C=C2c3cccc4[nH]cc(c34)C[C@H]2N(C(=O)NC2CCCCC2)C1 : y
CCN(CC)C(=O)[C@@H]1C=C2c3cccc4c3c(cn4C)C[C@H]2N(C(=O)Nc2ccccc2)C1 : y
CCN(CC)C(=O)[C@@H]1CC2c3cccc4[nH]cc(c34)C[C@H]2N(C(=O)Nc2ccccc2)C1 (stereo partly specified) : n

###

# measurement target: C-X-C chemokine receptor type 3 (Homo sapiens, UniProt P49682)
# Sequence (P49682 whole entry): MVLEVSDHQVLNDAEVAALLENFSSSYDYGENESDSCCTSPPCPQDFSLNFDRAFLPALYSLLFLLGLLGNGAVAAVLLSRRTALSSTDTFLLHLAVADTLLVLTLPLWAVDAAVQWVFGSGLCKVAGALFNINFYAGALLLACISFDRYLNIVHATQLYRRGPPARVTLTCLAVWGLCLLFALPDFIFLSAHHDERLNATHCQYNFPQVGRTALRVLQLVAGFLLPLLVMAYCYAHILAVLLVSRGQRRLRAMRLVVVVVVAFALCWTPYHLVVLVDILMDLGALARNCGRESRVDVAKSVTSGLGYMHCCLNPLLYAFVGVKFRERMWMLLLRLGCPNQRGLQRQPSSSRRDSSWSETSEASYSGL
# test name: Antagonist activity at human CXCR3 expressed in L1.2 cells assessed as inhibition of I-TAC-induced Ca2+ mobilization by FLIPR assay
# Type: functional, cell-based
This listing pairs compounds with measured IC50.
parameter: IC50 (µM)

CCN(CC)C(=O)[C@@H]1C=C2c3cccc4[nH]cc(c34)C[C@H]2N(C(=O)Nc2ccccc2)C1 : 0.018
CCN(CC)C(=O)[C@@H]1C=C2c3cccc4[nH]cc(c34)C[C@H]2N(C(=O)Nc2ccccn2)C1 : 0.062
CCN(CC)C(=O)[C@@H]1C=C2c3cccc4[nH]cc(c34)C[C@H]2N(C(=O)Nc2cccnc2)C1 : 0.067

###

Target or system Alpha-2C adrenergic receptor (Homo sapiens, UniProt P18825): recorded IC50 listed per item.
parameter: IC50

CCN(CC)C(=O)[C@@H]1C=C2c3cccc4[nH]cc(c34)C[C@H]2N(C(=O)Nc2ccccc2)C1 : 215 nM
CCN(CC)C(=O)[C@@H]1C=C2c3cccc4[nH]cc(c34)C[C@H]2NC1 : > 10000 nM

###

# measurement target: D(4) dopamine receptor (Homo sapiens, UniProt P21917)
# Sequence (P21917 whole entry): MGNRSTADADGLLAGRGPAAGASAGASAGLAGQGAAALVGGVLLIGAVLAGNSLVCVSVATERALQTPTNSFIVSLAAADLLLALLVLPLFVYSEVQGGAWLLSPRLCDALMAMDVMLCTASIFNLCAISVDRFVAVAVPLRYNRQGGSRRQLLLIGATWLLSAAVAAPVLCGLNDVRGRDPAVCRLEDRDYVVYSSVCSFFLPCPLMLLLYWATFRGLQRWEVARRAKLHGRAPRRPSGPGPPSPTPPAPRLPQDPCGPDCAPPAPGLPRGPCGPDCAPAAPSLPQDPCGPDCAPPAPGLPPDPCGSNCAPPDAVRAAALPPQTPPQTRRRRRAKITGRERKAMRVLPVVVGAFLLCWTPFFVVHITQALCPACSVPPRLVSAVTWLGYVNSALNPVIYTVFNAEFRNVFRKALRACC
pIC50: −log10 of the molar value.
parameter: pIC50

CCN(CC)C(=O)[C@@H]1C=C2c3cccc4[nH]cc(c34)C[C@H]2N(C(=O)Nc2ccccc2)C1 : 5.58

###

Target or system 5-hydroxytryptamine receptor 2B (Homo sapiens, UniProt P41595): recorded IC50 listed per item.
parameter: IC50 (nM)

CCN(CC)C(=O)[C@@H]1C=C2c3cccc4[nH]cc(c34)C[C@H]2N(C(=O)Nc2ccccc2)C1 : 2470
CCN(CC)C(=O)[C@@H]1C=C2c3cccc4[nH]cc(c34)C[C@H]2NC1 : 54

###

# measurement target: Cytochrome P450 2C19 (Homo sapiens, UniProt P33261)
# Sequence (P33261 whole entry): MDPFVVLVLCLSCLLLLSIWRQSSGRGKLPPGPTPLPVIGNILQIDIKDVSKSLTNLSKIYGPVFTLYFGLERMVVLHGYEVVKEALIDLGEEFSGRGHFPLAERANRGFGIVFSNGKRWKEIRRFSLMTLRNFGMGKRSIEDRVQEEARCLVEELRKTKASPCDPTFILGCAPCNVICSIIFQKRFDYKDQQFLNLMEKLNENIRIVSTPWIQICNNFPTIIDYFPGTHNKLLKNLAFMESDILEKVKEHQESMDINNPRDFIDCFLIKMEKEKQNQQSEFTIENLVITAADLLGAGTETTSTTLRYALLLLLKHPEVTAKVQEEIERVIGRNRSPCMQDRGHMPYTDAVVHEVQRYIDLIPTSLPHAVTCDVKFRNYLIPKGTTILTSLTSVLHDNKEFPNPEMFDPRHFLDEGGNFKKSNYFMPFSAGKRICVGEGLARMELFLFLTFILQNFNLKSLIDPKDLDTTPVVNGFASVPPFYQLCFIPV
pIC50: −log10 of the molar value.
parameter: pIC50

CCN(CC)C(=O)[C@@H]1C=C2c3cccc4[nH]cc(c34)C[C@H]2N(C(=O)Nc2ccccc2)C1 : < 5.00
